Every entry's value here was drawn from the supplement of paper PMC9112550.

- System: Escherichia coli TOP10;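 further: peptides expressed intracellularly from a pBAD plasmid library in pooled LB shake-flask culture, induced with 0.3% L-arabinose, DNA abundance read by NGS, three biological replicates, DESeq2 with apeglm shrinkage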
- METHOD: shrunken log2 fold change of peptide-encoding DNA abundance (4.5 h post-induction vs induction); higher = less antimicrobial activity (less host growth inhibition)
- CONDITION NOTES: time post-induction: 4.5 h; library: site-saturation at positions 5, 18, 19, 20
For each of the sequences below, state its shrunken log2 fold change.
Note: the reply should be a number with no unit written.

Problem: Would you mind telling me what shrunken log2 fold change value was observed for `RRIRDRPPRLPRPRPRPENHPRP` ?
Solution: -0.0926

Problem: Name the recorded shrunken log2 fold change for `RRIRMRPPRLPRPRPRPGYSPRP` .
Solution: -0.185

Problem: Param item = `RRIRERPPRLPRPRPRPNVYPRP` ; retrieve measured shrunken log2 fold change.
Solution: -0.439

Problem: Item `RRIRLRPPRLPRPRPRPPKWPRP` has what recorded shrunken log2 fold change?
Solution: 0.532

Problem: Endpoint output: shrunken log2 fold change of `RRIRWRPPRLPRPRPRPECAPRP` . Value?
Solution: 0.852

Problem: # lookup: shrunken log2 fold change of `RRIRYRPPRLPRPRPRPKMPPRP`
Solution: -0.206

Problem: Param item = `RRIRRRPPRLPRPRPRPHVQPRP` ; retrieve measured shrunken log2 fold change.
Solution: -0.143
